EXPERIMENTAL_DETAILS: Plasma concentrations of compound III two hours after dosing on day 1
Format: in vivo, female Charles River CD rats
SETTINGS: rat, plasma, po; 40 mg/kg, gavage, two hours after dosing on day 1

{"MOLECULE": "Nc1nc(-c2ccccc2)c(C(O)CO)c2ncnn12 (stereo not shown)", "concentration at 2 h, ng/mL": 13800}

====

EXPERIMENTAL_DETAILS: Plasma concentrations of compound III two hours after dosing on day 1
Type: in vivo, female Charles River CD rats
SETTINGS: rat, plasma, po; 320 mg/kg, gavage, two hours after dosing on day 1
PROPERTY_MEASURED: concentration at 2 h

{"COMPOUND": "Nc1nc(-c2ccccc2)c(C(O)CO)c2ncnn12 (stereo not shown) [compound III]", "PROPERTY_MEASURED": "concentration at 2 h", "ASSAY_RESULT": "47000 ng/mL"}
